Cited source: PubChem BioAssay (NCI)

System: MALME-3M melanoma
Experiment: NCI-60 one-dose screen, 48 h (100 = growth as untreated, 0 = no growth, -100 = all killed)
Run Parameters: 10 µM unless noted
Compounds without any hit were thinned out: in the full panel of roughly 83,000, 20% have a hit.
The label depends only on growth: class 1 if it is at least 30%, class 0 if it is smaller.

Determine whether this compound has growth no lower than 30%: CCOc1ccccc1NC1=C(Cl)C(=O)c2nc(C)ccc2C1=O class 0

Determine whether this compound has growth no lower than 30%: O=C(NNc1nc2cc(F)ccc2n2cccc12)c1ccncn1 class 0

Determine whether this compound has growth no lower than 30%: C=CCN(C)S(=O)(=O)/N=C1\NC(=O)NC1=C(Cl)Cl class 0

Determine whether this compound has growth no lower than 30%: CCCn1cnc2c(c1=N)C(c1ccc(F)cc1)c1sc3c(CC)cccc3c1O2 (stereo not given) class 1

Determine whether this compound has growth no lower than 30%: CCCCCc1ccc(S(=O)(=O)Nc2cccc(-c3csc(NC(=O)CN4CCN(CCO)CC4)n3)c2)cc1 class 1
